Ref: the supplement of paper PMC10307832

Tested on: CAL-12T
Assay: relative viability (nuclei count vs DMSO), 5 days (fraction); higher = more cells survive
Details: first compound 0.01 µM
Parameter relative viability: see the listing below.
Give only the figure.

Example entries and their recorded answers appear below.
Ask | Look up relative viability: Cc1cn(-c2cc(NC(=O)c3ccc(C)c(Nc4nccc(-c5cccnc5)n4)c3)cc(C(F)(F)F)c2)cn1 [Nilotinib] + COc1cccc2cc(-c3nc([C@H]4CC[C@H](C(=O)O)CC4)n4ncnc(N)c34)[nH]c12 [OSI-027] (partner 0.5 µM)
Reply | 0.426

Ask | Dear colleague, I am looking for the recorded relative viability of the following molecule: Cc1cn(-c2cc(NC(=O)c3ccc(C)c(Nc4nccc(-c5cccnc5)n4)c3)cc(C(F)(F)F)c2)cn1 [Nilotinib] + COc1cc2c(Oc3ccc(NC(=O)C4(C(=O)Nc5ccc(F)cc5)CC4)cc3F)ccnc2cc1OCCCN1CCOCC1 [Foretinib] (partner 0.25 µM)
Reply | 1.17

Ask | Consider the molecule Cc1cn(-c2cc(NC(=O)c3ccc(C)c(Nc4nccc(-c5cccnc5)n4)c3)cc(C(F)(F)F)c2)cn1 [Nilotinib] + CCNC(=O)c1noc(-c2cc(C(C)C)c(O)cc2O)c1-c1ccc(CN2CCOCC2)cc1 [Luminespib] (partner 0.01 µM) and give its measured relative viability.
Reply | 0.665

Ask | Suppose we examine the molecule Cc1cn(-c2cc(NC(=O)c3ccc(C)c(Nc4nccc(-c5cccnc5)n4)c3)cc(C(F)(F)F)c2)cn1 [Nilotinib] + C[C@@H](Oc1cc(-c2cnn(C3CCNCC3)c2)cnc1N)c1c(Cl)ccc(F)c1Cl [Crizotinib] (partner 1 µM) ; what relative viability value has been reported?
Reply | 0.902

Ask | Given Cc1cn(-c2cc(NC(=O)c3ccc(C)c(Nc4nccc(-c5cccnc5)n4)c3)cc(C(F)(F)F)c2)cn1 [Nilotinib] + CC(=O)Nc1cccc(-n2c(=O)n(C3CC3)c(=O)c3c(Nc4ccc(I)cc4F)n(C)c(=O)c(C)c32)c1 [Trametinib] (partner 0.02 µM) , state its recorded relative viability.
Reply | 0.261

Continue with the molecule presented below.
Ask | If you can, please state the reported relative viability value of Cc1cn(-c2cc(NC(=O)c3ccc(C)c(Nc4nccc(-c5cccnc5)n4)c3)cc(C(F)(F)F)c2)cn1 [Nilotinib] + O=C(CCCCCCC(=O)Nc1ccccc1)NO [Vorinostat] (partner 1 µM) .
Reply | 0.994
